# Assay Protocol: effective magnetic moment, Evans magnetic susceptibility balance
# Type: physicochemical
# Particulars: measured at 295K
Documented μeff (effective magnetic moment) across a set of compounds

- Smiles Code: "CCCCCCCC[N+](CCCCCCCC)(CCCCCCCC)Cc1ccc(C(C)(C)C)cc1.[Cl][Fe-]([Cl])([Cl])[Br]"
  Value Units: "μB"
  μeff (effective magnetic moment): 5.68
- Smiles Code: "CCCCCCCCCCCCCCCCn1c[n+](CCCCCCCCCCCC[n+]2cn(CCCCCCCCCCCCCCCC)c3ccccc32)c2ccccc21.[Cl][Fe-]([Cl])([Cl])[Br].[Cl][Fe-]([Cl])([Cl])[Br]"
  Value Units: "μB"
  μeff (effective magnetic moment): 7.58
- Smiles Code: "CCCCCCCC[N+](CCCCCCCC)(CCCCCCCC)Cc1cccc(OC)c1.[Cl][Fe-]([Cl])([Cl])[Br]"
  Value Units: "μB"
  μeff (effective magnetic moment): 5.60
- Smiles Code: "CCCCCCCCCCCCCCCCn1c[n+](CCCCCCCCCCCC[n+]2ccn(Cc3ccccc3)c2)c2ccccc21.O=S(=O)([N-]S(=O)(=O)C(F)(F)F)C(F)(F)F.[Cl][Fe-]([Cl])([Cl])[Br]"
  Value Units: "μB"
  μeff (effective magnetic moment): 5.30
- Smiles Code: "CCCCCCCCCCCCCCCCn1c[n+](CCCCCCCCCCCC[n+]2cn(CCCCCCCCCCCCCCCC)c3ccccc32)c2ccccc21.O=S(=O)([N-]S(=O)(=O)C(F)(F)F)C(F)(F)F.[Cl][Fe-]([Cl])([Cl])[Br]"
  Value Units: "μB"
  μeff (effective magnetic moment): 5.69
- Smiles Code: "CCCCCCCCCCCCCCCCn1cc[n+](CCCCCCCCCCCC[n+]2ccn(CCCCCCCCCCCCCCCC)c2C)c1C.O=S(=O)([N-]S(=O)(=O)C(F)(F)F)C(F)(F)F.[Cl][Fe-]([Cl])([Cl])[Br]"
  Value Units: "μB"
  μeff (effective magnetic moment): 5.37
- Smiles Code: "O=S(=O)([N-]S(=O)(=O)C(F)(F)F)C(F)(F)F.[Cl][Fe-]([Cl])([Cl])[Br].c1ccc(Cn2c[n+](CCCCCCCCCCCC[n+]3cn(Cc4ccccc4)c4ccccc43)c3ccccc32)cc1"
  Value Units: "μB"
  μeff (effective magnetic moment): 5.45
- Smiles Code: "CCCCCCCCSCCC[n+]1ccn(Cc2cc(Cn3cc[n+](CCCSCCCCCCCC)c3)cc(Cn3cc[n+](CCCSCCCCCCCC)c3)c2)c1.[Cl][Fe-]([Cl])([Cl])[Br].[Cl][Fe-]([Cl])([Cl])[Br].[Cl][Fe-]([Cl])([Cl])[Br]"
  Value Units: "μB"
  μeff (effective magnetic moment): 11.76

====

# Assay Protocol: solubility of MILs in water
# Assay type: physicochemical

- Smiles Code: "CCCCCCCCCCCCCCCCn1c[n+](CCCCCCCCCCCC[n+]2cn(CCCCCCCCCCCCCCCC)c3ccccc32)c2ccccc21.O=S(=O)([N-]S(=O)(=O)C(F)(F)F)C(F)(F)F.[Cl][Fe-]([Cl])([Cl])[Br]"
  solubility in water: "Id"
